Assay Method Text: Clearance in adolescents of >12-16 yrs age at risk for fungal infection at 2.5 mg/kg, iv in 0.1 g/kg hydroxypropyl-beta-cyclodextrin administered as single dose
Type: ADME, organism-based
Parameters: dose 2.5 mg/kg, route intravenous
Recorded Conditions: human, in vivo
Parameter: clearance (L/h/kg)
Give a bare numeral; the unit L/h/kg is implied.

# molecule CCC(C)n1ncn(-c2ccc(N3CCN(c4ccc(OCC5COC(Cn6cncn6)(c6ccc(Cl)cc6Cl)O5)cc4)CC3)cc2)c1=O (stereo unspecified) ; its clearance = 0.777

###

Assay Method Text: Cmax in infants of 0.6-2 yrs age at risk for fungal infection at 2.5 mg/kg, iv in 0.1 g/kg hydroxypropyl-beta-cyclodextrin administered as single dose
Assay type: ADME, organism-based
Set-up: dose 2.5 mg/kg, route intravenous
Recorded Conditions: human, in vivo
Parameter: Cmax (µg/mL)
Return type: number; implicit unit µg/mL.

Cmax measured on CCC(C)n1ncn(-c2ccc(N3CCN(c4ccc(OCC5COC(Cn6cncn6)(c6ccc(Cl)cc6Cl)O5)cc4)CC3)cc2)c1=O (stereo unspecified) = 0.827

###

Assay Method Text: Half life in adolescents of >12-16 yrs age at risk for fungal infection at 2.5 mg/kg, iv in 0.1 g/kg hydroxypropyl-beta-cyclodextrin administered as single dose
Format: ADME, organism-based
Design: dose 2.5 mg/kg, route intravenous
Recorded Conditions: human, in vivo
Parameter: half-life (min)
Enter your answer as a number in min; do not include the unit.

The value of half-life measured for the compound CCC(C)n1ncn(-c2ccc(N3CCN(c4ccc(OCC5COC(Cn6cncn6)(c6ccc(Cl)cc6Cl)O5)cc4)CC3)cc2)c1=O (stereo unspecified) [ITRACONAZOLE] turned out to be 1740

###

Assay Method Text: Half life in children of >2-6 yrs age at risk for fungal infection at 2.5 mg/kg, iv in 0.1 g/kg hydroxypropyl-beta-cyclodextrin administered as single dose
Assay type: ADME, organism-based
Set-up: dose 2.5 mg/kg, route intravenous
Recorded Conditions: human, in vivo
Parameter: half-life

CCC(C)n1ncn(-c2ccc(N3CCN(c4ccc(OCC5COC(Cn6cncn6)(c6ccc(Cl)cc6Cl)O5)cc4)CC3)cc2)c1=O (stereo unspecified) has a reported half-life of 14 h

###

Assay Method Text: Cmax in adolescents of >12-16 yrs age at risk for fungal infection at 2.5 mg/kg, iv in 0.1 g/kg hydroxypropyl-beta-cyclodextrin administered as single dose
Format: ADME, organism-based
Parameters: dose 2.5 mg/kg, route intravenous
Recorded Conditions: human, in vivo
Parameter: Cmax (ng/mL)
Report only the number, with the unit ng/mL understood.

The recorded Cmax for entry CCC(C)n1ncn(-c2ccc(N3CCN(c4ccc(OCC5COC(Cn6cncn6)(c6ccc(Cl)cc6Cl)O5)cc4)CC3)cc2)c1=O (stereo unspecified) equals 806

###

Assay Method Text: Half life in infants of 0.6-2 yrs age at risk for fungal infection at 2.5 mg/kg, iv in 0.1 g/kg hydroxypropyl-beta-cyclodextrin administered as single dose
Format: ADME, organism-based
Parameters: dose 2.5 mg/kg, route intravenous
Recorded Conditions: human, in vivo
Parameter: half-life (h)
Respond with the bare value in h.

half-life measured on CCC(C)n1ncn(-c2ccc(N3CCN(c4ccc(OCC5COC(Cn6cncn6)(c6ccc(Cl)cc6Cl)O5)cc4)CC3)cc2)c1=O (stereo unspecified) = 13.3

###

Assay Method Text: Half life in human at risk for fungal infection at 2.5 mg/kg, iv in 0.1 g/kg hydroxypropyl-beta-cyclodextrin administered as single dose
Assay type: ADME, organism-based
Parameters: dose 2.5 mg/kg, route intravenous
Recorded Conditions: in vivo
Parameter: half-life

Consider CCC(C)n1ncn(-c2ccc(N3CCN(c4ccc(OCC5COC(Cn6cncn6)(c6ccc(Cl)cc6Cl)O5)cc4)CC3)cc2)c1=O (stereo unspecified) . Its measured half-life is 20.2 h

###

Assay Method Text: AUC (0 to 24 hrs) in infants of 0.6-2 yrs age at risk for fungal infection at 2.5 mg/kg, iv in 0.1 g/kg hydroxypropyl-beta-cyclodextrin administered as single dose
Format: ADME, organism-based
Set-up: time < 24 hr, dose 2.5 mg/kg, route intravenous
Recorded Conditions: human, plasma
Parameter: AUC(0-t) at 24 h

Input CCC(C)n1ncn(-c2ccc(N3CCN(c4ccc(OCC5COC(Cn6cncn6)(c6ccc(Cl)cc6Cl)O5)cc4)CC3)cc2)c1=O (stereo unspecified) [ITRACONAZOLE] . Output AUC(0-t) at 24 h: 2120 ng·h/mL

###

Assay Method Text: Clearance in children of >6-12 yrs age at risk for fungal infection at 2.5 mg/kg, iv in 0.1 g/kg hydroxypropyl-beta-cyclodextrin administered as single dose
Assay type: ADME, organism-based
Parameters: dose 2.5 mg/kg, route intravenous
Recorded Conditions: human, in vivo
Parameter: clearance

Notebook: CCC(C)n1ncn(-c2ccc(N3CCN(c4ccc(OCC5COC(Cn6cncn6)(c6ccc(Cl)cc6Cl)O5)cc4)CC3)cc2)c1=O (stereo unspecified) , clearance read as 10.3 mL/min/kg

###

Assay Method Text: Apparent volume of distribution in adolescents of >12-16 yrs age at risk for fungal infection at 2.5 mg/kg, iv in 0.1 g/kg hydroxypropyl-beta-cyclodextrin administered as single dose
Format: ADME, organism-based
Parameters: dose 2.5 mg/kg, route intravenous
Recorded Conditions: human, in vivo
Parameter: Vd (L/kg)
Give your result in L/kg as a bare value.

In plain terms, CCC(C)n1ncn(-c2ccc(N3CCN(c4ccc(OCC5COC(Cn6cncn6)(c6ccc(Cl)cc6Cl)O5)cc4)CC3)cc2)c1=O (stereo unspecified) has a documented Vd of 28.5

###

Assay Method Text: AUC (0 to 24 hrs) in children of >6-12 yrs age at risk for fungal infection at 2.5 mg/kg, iv in 0.1 g/kg hydroxypropyl-beta-cyclodextrin administered as single dose
Assay type: ADME, organism-based
Design: time < 24 hr, dose 2.5 mg/kg, route intravenous
Recorded Conditions: human, plasma
Parameter: AUC(0-t) at 24 h (ng·h/mL)
Use ng·h/mL as the unit, but write only the number.

AUC(0-t) at 24 h reading for CCC(C)n1ncn(-c2ccc(N3CCN(c4ccc(OCC5COC(Cn6cncn6)(c6ccc(Cl)cc6Cl)O5)cc4)CC3)cc2)c1=O (stereo unspecified) : 3760

###

Assay Method Text: Half life in children of >6-12 yrs age at risk for fungal infection at 2.5 mg/kg, iv in 0.1 g/kg hydroxypropyl-beta-cyclodextrin administered as single dose
Format: ADME, organism-based
Set-up: dose 2.5 mg/kg, route intravenous
Recorded Conditions: human, in vivo
Parameter: half-life (h)
The response must be a number in h with no trailing unit.

Short answer for CCC(C)n1ncn(-c2ccc(N3CCN(c4ccc(OCC5COC(Cn6cncn6)(c6ccc(Cl)cc6Cl)O5)cc4)CC3)cc2)c1=O (stereo unspecified) [ITRACONAZOLE] : half-life was 17.2

###

Assay Method Text: Clearance in infants of 0.6-2 yrs age at risk for fungal infection at 2.5 mg/kg, iv in 0.1 g/kg hydroxypropyl-beta-cyclodextrin administered as single dose
Assay type: ADME, organism-based
Design: dose 2.5 mg/kg, route intravenous
Recorded Conditions: human, in vivo
Parameter: clearance (mL/min/kg)
Provide only the numeric value, understood in mL/min/kg.

Measured clearance, CCC(C)n1ncn(-c2ccc(N3CCN(c4ccc(OCC5COC(Cn6cncn6)(c6ccc(Cl)cc6Cl)O5)cc4)CC3)cc2)c1=O (stereo unspecified) [ITRACONAZOLE] : 19.1

###

Assay Method Text: Cmax in children of >6-12 yrs age at risk for fungal infection at 2.5 mg/kg, iv in 0.1 g/kg hydroxypropyl-beta-cyclodextrin administered as single dose
Type: ADME, organism-based
Set-up: dose 2.5 mg/kg, route intravenous
Recorded Conditions: human, in vivo
Parameter: Cmax (ng/mL)
Hi! Could you send only the number? It should be in ng/mL, unit omitted.

Sample CCC(C)n1ncn(-c2ccc(N3CCN(c4ccc(OCC5COC(Cn6cncn6)(c6ccc(Cl)cc6Cl)O5)cc4)CC3)cc2)c1=O (stereo unspecified) ; Cmax observed: 785

###

Assay Method Text: Cmax in human at risk for fungal infection at 2.5 mg/kg, iv in 0.1 g/kg hydroxypropyl-beta-cyclodextrin administered as single dose
Format: ADME, organism-based
Set-up: dose 2.5 mg/kg, route intravenous
Recorded Conditions: in vivo
Parameter: Cmax (ng/mL)
Provide the reading as a plain figure in ng/mL.

// Cmax value for CCC(C)n1ncn(-c2ccc(N3CCN(c4ccc(OCC5COC(Cn6cncn6)(c6ccc(Cl)cc6Cl)O5)cc4)CC3)cc2)c1=O (stereo unspecified) [ITRACONAZOLE] : 1020
